FYI, the data here is from PubChem BioAssay (NCI).

Tested on: U251 CNS
assay.overview: NCI tumour cell line growth inhibition, 48 h
Kindly state TGI for each of the entries shown.

Specify reported TGI for the compound shown: O=C(/C(=C/c1cccc([N+](=O)[O-])c1)c1ccccc1)c1ccccc1
8.16 µM

Please give measured TGI of the following entry: Cc1ccc(NC(=S)N/N=C(/c2ccccc2)c2ccccn2)cc1
12.9 µM

Tell me TGI reported for Cc1ccc2c(c1)C1(C)OC(C=CC1=O)O2 (stereo not given)
0.549 µM

Return the recorded TGI value; entry: COc1cc2c(c(OC)c1OC)C(=O)[C@@H]1c3ccc([N+](=O)[O-])cc3C(=O)N(CCCBr)[C@H]21
> 100 µM

# return recorded TGI for entry c1csc(-c2cc(-c3cccs3)c(-c3ccsc3)s2)c1
> 100 µM

---

Tested on: OVCAR-8 ovarian
assay.overview: NCI tumour cell line growth inhibition, 48 h
measured.metric: TGI

Provide TGI, system OVCAR-8 ovarian, entry O=C1N[C@@H](c2c[nH]c3cc(Br)ccc23)C(=O)N[C@H]1c1c[nH]c2cc(Br)ccc12
> 100 µM

Provide TGI, recorded with OVCAR-8 ovarian, of CCCCCN(CCCCC)CC(O)c1ccc(Cl)c2ccccc12 (stereo not drawn)
36.6 µM

Specify the recorded TGI for COc1ccc(/C(Cl)=C(\C=O)c2ccc([N+](=O)[O-])cc2)cc1 , system: OVCAR-8 ovarian.
38.3 µM

Answer with TGI of O=C(O)Cc1cc(O)c(CC(=O)O)cc1O measured for OVCAR-8 ovarian.
> 100 µM

Send back OVCAR-8 ovarian TGI of CC(C)(C)C1=CC(=C(c2ccc(-c3c4nc(c(-c5ccc(C(=C6C=C(C(C)(C)C)C(=O)C(C(C)(C)C)=C6)c6cc(C(C)(C)C)c(O)c(C(C)(C)C)c6)cc5)c5ccc([nH]5)c(-c5ccc(C(=C6C=C(C(C)(C)C)C(=O)C(C(C)(C)C)=C6)c6cc(C(C)(C)C)c(O)c(C(C)(C)C)c6)cc5)c5nc(c(-c6ccc(C(=C7C=C(C(C)(C)C)C(=O)C(C(C)(C)C)=C7)c7cc(C(C)(C)C)c(O)c(C(C)(C)C)c7)cc6)c6ccc3[nH]6)C=C5)C=C4)cc2)c2cc(C(C)(C)C)c(O)c(C(C)(C)C)c2)C=C(C(C)(C)C)C1=O only.
> 100 µM

Jot down TGI (OVCAR-8 ovarian) of Cn1c2ccccc2c2c3[nH]c(=O)[nH]c(=O)c3c3c4ccccc4n(C)c3c21 .
14.1 µM

State TGI (OVCAR-8 ovarian) of COc1ccc(CCN2CCN(CCc3ccc(OC)cc3)CC2)cc1 .
> 100 µM

Report the value of TGI obtained on OVCAR-8 ovarian for CC(C)N1CN(C(C(=O)N[C@@H]2C(=O)N3C2SC(C)(C)C3C(=O)O)c2ccccc2)CSC1=S (stereo partly drawn) .
> 100 µM

---

Test system: OVCAR-5 ovarian
assay.overview: NCI tumour cell line growth inhibition, 48 h
measured.metric: TGI

Please give measured TGI of the following entry: O=C(N/N=C\c1cccc(O)c1)c1ccncc1
> 100 µM

Report TGI for Cc1ccc(-c2c3nc(c(-c4ccc(C)cc4)c4ccc([nH]4)c(-c4ccc(OCC5COC(C)(C)O5)cc4)c4nc(c(-c5ccc(C)cc5)c5ccc2[nH]5)C=C4)C=C3)cc1 (stereo not given)
> 31.6 µM

Look up and report measured TGI for this entry: COC(=O)C(COC(C)=O)NC(=O)/C=C/c1ccc(O)c(OC(C)=O)c1 (stereo not given)
> 100 µM

Tell me TGI reported for CN(/N=C/c1ccc(OCc2cccc(COc3ccc(C=O)cc3)n2)cc1)c1cnn(-c2ccc(Cl)cc2Cl)c(=O)c1Cl
> 100 µM

Provide TGI value for the following compound: CC1=CC(=O)N(n2c(Cc3ccccc3)n[nH]c2=O)C1=O
> 100 µM
